Data provenance is patent US20080275111A1.

TEST SUMMARY: Toxicity in oral administration
STUDY CONDITIONS: rat, in vivo; oral administration to rats; data not shown; read-out: 50% lethal dose (LD50)
Description: The lignan compound of the present invention was tested for toxicity in oral administration to rats, and as a result, it was observed that the 50% lethal dose (LD50) was more than 2,000 mg/kg (Data is not shown).
ASSAY ENDPOINT: LD50

Exercise: Entry COc1cc(C[C@H](C)[C@H](C)Cc2ccc3c(c2)OCO3)ccc1O : reported LD50 = ?
Key: > 2000 mg/kg

----------
TEST SUMMARY: Transmission test to the brain (brain uptake clearance, LC/MS)
Type: in vivo
STUDY CONDITIONS: male SD rat, 1 mg/kg intravenous, plasma 0 to 2 minutes, trapezoidal method
ASSAY ENDPOINT: AUC (ng·h/mL)
Express the result in ng·h/mL but write the number alone.

Exercise: Entry COc1cc(C[C@H](C)[C@H](C)Cc2ccc3c(c2)OCO3)ccc1O : reported AUC = ?
Key: 648
